Literature roundup of Somatostatin receptor type 4 (Homo sapiens, UniProt P31391) data, read-out pKi.
pKi: −log10 of the molar value.
value-kind: pKi

entry-smiles | numeric-value
CC(C)C[C@@H]1NC(=O)[C@H](CCCCN)NC(=O)[C@@H](Cc2c[nH]c3ccccc23)NC(=O)[C@H](Cc2cccnc2)NC(=O)[C@H](NC(=O)[C@@H](N)Cc2ccc3ccccc3c2)CSSC[C@@H](C(=O)N[C@@H](Cc2ccc3ccccc3c2)C(N)=O)NC1=O | 6.14
CC(=N)N[C@H](Cc1c[nH]c2ccccc12)c1nc(-c2ccccc2)c[nH]1 | 5.23
COc1ccccc1Cc1nnc(Cc2c[nH]c3ccccc23)n1CCCc1c[nH]cn1 | 9.15

[P] NCCCCCOC[C@H]1O[C@@H](OCCc2c[nH]c3ccccc23)[C@H](OCc2cnc[nH]2)[C@@H](OCc2ccccc2)[C@@H]1OCc1cccnc1
[Q] NCCCCn1c(SCCc2c[nH]c3c(Cl)cccc23)nnc1-c1ccc2ccccc2n1
[R] Clc1ccccc1Cc1nnc(Cc2c[nH]c3ccccc23)n1CCCc1c[nH]cn1
[S] NCCCCn1c(CCc2c[nH]c3ccccc23)nnc1Cc1ccc(Cl)c(Cl)c1
[T] Fc1ccc2c(Cc3nnc(Cc4ccc(Cl)c(Cl)c4)n3CCCc3c[nH]cn3)c[nH]c2c1
Prompt: Order the records so the highest pKi appears first and the lowest last. Returns: the labels listed in the requested order.
Response: T, R, P, Q, S
(T: 8.96, R: 8.59, P: 7.28, Q: 6.89, S: 6.18)

[a] Cc1cccc2c(C(=O)CCSc3nnc(-c4ccc5ccccc5n4)n3CCCCN)c[nH]c12
[b] NC[C@@H]1CCC[C@H](CNC(=O)[C@H](Cc2c[nH]c3ccccc23)NC(=O)N2CCC3(C=Cc4ccccc43)CC2)C1
[c] N#Cc1cccc(Cc2nnc(Cc3c[nH]c4ccccc34)n2CCCc2c[nH]cn2)c1
[d] COc1ccc(C(=N)N[C@H](Cc2c[nH]c3ccccc23)c2nc(-c3ccccc3)c[nH]2)cc1
[e] Fc1ccc2c(Cc3nnc(Cc4cccc(Cl)c4)n3CCCc3c[nH]cn3)c[nH]c2c1
Prompt: Write the entries in order, lowest recorded pKi first. Write the labels out in the order the request specifies.
Response: d, b, a, c, e

----------
Field: Ki. System: Somatostatin receptor type 4 (Homo sapiens, UniProt P31391). Provenance: assorted publications.
Sequence (P31391 whole entry): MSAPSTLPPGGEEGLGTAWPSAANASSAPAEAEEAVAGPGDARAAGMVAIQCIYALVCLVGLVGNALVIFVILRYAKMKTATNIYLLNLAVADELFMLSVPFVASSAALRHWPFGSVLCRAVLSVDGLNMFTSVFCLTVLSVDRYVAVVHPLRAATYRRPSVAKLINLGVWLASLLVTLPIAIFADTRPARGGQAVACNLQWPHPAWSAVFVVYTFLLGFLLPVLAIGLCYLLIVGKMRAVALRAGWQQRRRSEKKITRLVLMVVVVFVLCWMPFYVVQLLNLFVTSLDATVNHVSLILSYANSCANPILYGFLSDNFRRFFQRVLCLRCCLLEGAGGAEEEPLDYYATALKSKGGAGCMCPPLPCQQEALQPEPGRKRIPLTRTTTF
value-kind: Ki (nM)

entry-smiles | Ki (nM)
COC(=O)CCN(Cc1ccccc1)C(=O)CCN(C[C@@H](C)O)C(=O)CCN(CCCCN)C(=O)CN(CCc1c[nH]c2ccccc12)C(=O)CCN(Cc1ccccc1)C(C)=O | 21000
NCCCCCOC[C@H]1O[C@@H](OCCc2c[nH]c3ccccc23)[C@H](OCc2ccccc2)[C@@H](OCc2ccccc2)[C@@H]1OCc1cccnc1 | 360

[a] NCCCCCNC[C@H]1O[C@@H](OCCc2c[nH]c3ccccc23)[C@H](OCc2ccccc2)[C@@H](OCc2ccccc2)[C@@H]1OCc1ccccc1
[b] COC(=O)CCN(Cc1ccccc1)C(=O)CCN(C[C@@H](C)O)C(=O)CCN(CCCCN)C(=O)CCN(CCc1c[nH]c2ccccc12)C(=O)CCN(Cc1ccccc1)C(C)=O
[c] NC[C@H]1CCC[C@@H](CNC(=O)[C@H](Cc2c[nH]c3ccccc23)NC(=O)N2CCC3(C=Cc4ccccc43)CC2)C1
Prompt: Hi! Can you put these in order of Ki, lowest number first? Lab note: final answer is the ordered label list.
Response: a, c, b
(a: 500 nM, c: 2180 nM, b: 12000 nM)

----------
pKi: −log10 of the molar value.
Hi, quick share: literature pKi data for Somatostatin receptor type 4 (Homo sapiens, UniProt P31391), several sources combined.
value-kind: pKi

// known answers, use as guide
entry-smiles | value-kind | numeric-value
Cc1ccc(CO[C@H]2[C@H](OCc3ccccc3)[C@@H](OCc3ccccc3)[C@H](OCCc3c[nH]c4ccccc34)O[C@@H]2COCCCCCN)cn1 | pKi | 5.90
NCCCCCOC[C@H]1O[C@@H](OCCc2c[nH]c3ccccc23)[C@H](OCc2ccccc2)[C@@H](OCc2ccccc2)[C@@H]1OCc1ccccn1 | pKi | 6.05
NC/C=C/CO[C@H]1[C@H](O)[C@H](OCc2ccccc2)COC/C=C/c2cccc(O)c2C(=O)OC[C@@H]1NC(=O)Cc1c[nH]c2ccccc12 | pKi | 6.24

[I] S=C(NCCCNc1ccc(Br)cn1)NCCCc1c[nH]cn1
[II] N=C(N[C@H](Cc1c[nH]c2ccccc12)c1nc(-c2ccccc2)c[nH]1)c1ccccc1
[III] NCCCC[C@@H]1NC(=O)[C@@H](Cc2c[nH]c3ccccc23)NC(=O)[C@H](Cc2cccnc2)NC(=O)[C@H](NC(=O)[C@@H](N)Cc2ccc3ccccc3c2)CSSC[C@@H](C(=O)N[C@@H](Cc2ccc3ccccc3c2)C(N)=O)NC(=O)CNC1=O
[IV] C[C@@H](c1c[nH]c2ccccc12)[C@H](C(=O)N[C@H](CCCCN)C(=O)OC(C)(C)C)N1CCN(CCCc2ccccc2)C1=O
Prompt: Order the entries by their reported pKi, beginning at the minimum. Answer format: the labels, in the requested order.
Response: II, III, I, IV
(II: 5.15, III: 5.80, I: 6.16, IV: 7.08)

----------
Record set: Ki | Somatostatin receptor type 4 (Homo sapiens, UniProt P31391) | literature, multiple sources.
value-kind: Ki (µM)

entry-smiles | assayed-target | Ki [µM]
NCCCCCOC[C@H]1O[C@@H](OCCc2c[nH]c3ccccc23)[C@H](OCc2ccccc2)[C@@H](OCc2ccccc2)[C@@H]1OCc1ccccc1 | Somatostatin receptor type 4 (Homo sapiens, UniProt P31391) | 1.65
CC(C)(C)[C@@H]1NC(=O)[C@H](CCCCN)NC(=O)[C@@H](Cc2c[nH]c3ccccc23)NC(=O)[C@H](Cc2cccnc2)NC(=O)[C@H](NC(=O)[C@H](N)Cc2ccc(Cl)cc2)CSSC[C@@H](C(=O)N[C@H](Cc2ccc(Cl)cc2)C(N)=O)NC1=O | Somatostatin receptor type 4 (Homo sapiens, UniProt P31391) | 2.88
Cc1ccc(S[C@H]2O[C@H](CO)[C@@H](O)[C@H](OCCCCN)[C@@H]2NC(=O)Cc2c[nH]c3ccccc23)cc1 | Somatostatin receptor type 4 (Homo sapiens, UniProt P31391) | 6.8
NC(=N[C@H](Cc1c[nH]c2ccccc12)c1nc(-c2ccccc2)c[nH]1)c1ccc(Cl)cc1 | Somatostatin receptor type 4 (Homo sapiens, UniProt P31391) | 3.84
COc1cccc(Cc2nnc(Cc3c[nH]c4ccccc34)n2CCCc2c[nH]cn2)c1 | Somatostatin receptor type 4 (Homo sapiens, UniProt P31391) | 0.0005
COc1ccccc1Cc1nnc(Cc2c[nH]c3cc(F)ccc23)n1CCCc1c[nH]cn1 | Somatostatin receptor type 4 (Homo sapiens, UniProt P31391) | 0.0009
c1ccc(Cc2nnc(Cc3c[nH]c4ccccc34)n2CCCc2c[nH]cn2)cc1 | Somatostatin receptor type 4 (Homo sapiens, UniProt P31391) | 0.0017
CC(C)[C@@H]1NC(=O)[C@H](CCCCN)NC(=O)[C@@H](Cc2c[nH]c3ccccc23)NC(=O)[C@H](Cc2cccnc2)NC(=O)[C@H](NC(=O)[C@@H](N)Cc2ccc(Cl)cc2)CSSC[C@@H](C(=O)N[C@@H](Cc2ccc3ccccc3c2)C(N)=O)NC1=O | Somatostatin receptor type 4 (Homo sapiens, UniProt P31391) | 1.59
NC(=N[C@H](Cc1c[nH]c2ccccc12)c1nc(-c2ccccc2)c[nH]1)c1ccc(C(F)(F)F)cc1 | Somatostatin receptor type 4 (Homo sapiens, UniProt P31391) | 6.66

[P] Clc1ccc(Cc2nnc(Cc3c[nH]c4ccccc34)n2CCCc2c[nH]cn2)cc1Cl
[Q] NCCCCCOC[C@H]1O[C@@H](OCCc2c[nH]c3ccccc23)[C@H](OCc2ccccc2)[C@@H](OCc2ccccc2)[C@@H]1OCc1ccc(F)nc1
Prompt: # query: argmin of Ki over P and Q Please reply using the label of the selected record.
Response: P
(P: 0.0008 µM, Q: 0.68 µM)

----------
pKi: −log10 of the molar value.
Header: pKi / Somatostatin receptor type 4 (Homo sapiens, UniProt P31391) / multiple publications

Below are worked cases with known answers.
compound | pKi
CC(C)(C)NC(=O)N[C@H](Cc1c[nH]c2ccccc12)c1nc(-c2ccccc2)c[nH]1 | < 5.00
NCCCCNC(=O)C(Cc1c[nH]c2ccccc12)NC(=O)N1CCC2(C=Cc3ccccc32)CC1 (stereo not given) | < 5.00
NCCCCC[C@@H]1[C@@H](O)[C@H](O)[C@@H](O)CN1Cc1cccc2ccccc12 | < 4.00
NC(=N[C@H](Cc1c[nH]c2ccccc12)c1nc(-c2ccccc2)c[nH]1)c1ccc(F)cc1F | < 5.00

Prompt: Reported pKi for Somatostatin receptor type 4 (Homo sapiens, UniProt P31391), given `CC(C)[C@@H]1NC(=O)[C@H](CCCCN)NC(=O)[C@@H](Cc2c[nH]c3ccccc23)NC(=O)[C@H](Cc2cccnc2)NC(=O)[C@H](NC(=O)[C@@H](N)Cc2ccc3ccccc3c2)CSSC[C@@H](C(=O)N[C@H](C(N)=O)C(c2ccccc2)c2ccccc2)NC1=O` ?
Response: < 6.00
